log10 EC50 reference
Tested on: Human immunodeficiency virus 1
Assay summary: Antiviral activity against HIV1 3B infected in human MT4 cells assessed as inhibition of viral cytopathogenicity after 5 days by MTT assay
Assay type: functional, organism-based
Reported conditions: Human immunodeficiency virus 1, 3B, MT4, 120 h
Recorded endpoint: log10 EC50 (log10 of the value in nM)

Molecule	log10 EC50
CC(O)(c1ccnc(Nc2ccc(C#N)cc2)n1)c1cccc2ccccc12 (stereo not given)	2.59
Cc1cnc(Nc2ccc(C#N)cc2)nc1C(C)(O)c1ccc(C(C)(C)C)cc1 (stereo not given)	3.86
CC(O)(c1cccc(F)c1)c1ccnc(Nc2ccc(C#N)cc2)n1 (stereo not given)	2.30
C=CC(O)(c1ccc(Br)cc1)c1ccnc(Nc2ccc(C#N)cc2)n1 (stereo not given)	2.55
O=C1Nc2ccc(Cl)cc2[C@@](C#CC2CC2)(C(F)(F)F)O1	1.34
Cc1ccc(C(C)(O)c2ccnc(Nc3ccc(C#N)cc3)n2)cc1 (stereo not given)	1.83
CC(O)(c1ccc(Cl)cc1)c1ccnc(Nc2ccc(C#N)cc2)n1 (stereo not given)	2.50
CC(O)(c1cccc(Cl)c1)c1ccnc(Nc2ccc(C#N)cc2)n1 (stereo not given)	2.41
CC(C)Nc1cccnc1N1CCN(C(=O)c2cc3cc(NS(C)(=O)=O)ccc3[nH]2)CC1	2.91
CC(O)(c1cccc(Br)c1)c1ccnc(Nc2ccc(C#N)cc2)n1 (stereo not given)	2.28

###

System tested: Human immunodeficiency virus type 1 reverse transcriptase (Human immunodeficiency virus 1, UniProt Q72547)
pIC50: −log10 of the molar value.
pIC50 reference

Molecule	pIC50
CC(O)(c1cccc(F)c1)c1ccnc(Nc2ccc(C#N)cc2)n1 (centres undefined)	6.20
CC(O)(c1ccccc1)c1ccnc(Nc2ccc(C#N)cc2)n1 (centres undefined)	5.70
CC(O)(c1cccc(Br)c1)c1ccnc(Nc2ccc(C#N)cc2)n1 (centres undefined)	6.41
Cc1ccc(C(C)(O)c2ccnc(Nc3ccc(C#N)cc3)n2)cc1 (centres undefined)	6.80

###

Tested on: Human immunodeficiency virus 1
Assay summary: Antiviral activity against HIV1 3B infected in human MT4 cells assessed as inhibition of viral cytopathogenicity after 5 days by MTT assay
Type: functional, organism-based
Reported conditions: Human immunodeficiency virus 1, 3B, MT4, 120 h
pEC50: −log10 of the molar value.

Compound	Op	pEC50
CCC(O)(c1ccc(Br)cc1)c1ccnc(Nc2ccc(C#N)cc2)n1 (stereo not given)	=	5.68
Cc1cc(C(C)(O)c2ccc(F)cc2)nc(Nc2ccc(C#N)cc2)n1 (stereo not given)	=	5.45
CC(O)(c1ccccc1)c1ccnc(Nc2ccc(C#N)cc2)n1 (stereo not given)	=	6.54
Cc1cnc(Nc2ccc(C#N)cc2)nc1C(C)(O)c1ccc(F)cc1 (stereo not given)	<	4.21
CC(O)(c1ccc(F)cc1)c1ccnc(Nc2ccc(C#N)cc2)n1 (stereo not given)	=	5.60
N#Cc1ccc(Nc2nccc(C(O)(c3ccc(Br)cc3)C3CC3)n2)cc1 (stereo not given)	=	5.51
CC(C)(C)c1ccc(C(C)(O)c2ccnc(Nc3ccc(C#N)cc3)n2)cc1 (stereo not given)	=	6.25
COc1ccc(C(C)(O)c2ccnc(Nc3ccc(C#N)cc3)n2)cc1 (stereo not given)	=	6.46
Cc1cc(C(C)(O)c2ccc(C(C)(C)C)cc2)nc(Nc2ccc(C#N)cc2)n1 (stereo not given)	=	5.90
CC(O)(c1ccc(Br)cc1)c1ccnc(Nc2ccc(C#N)cc2)n1 (stereo not given)	=	6.52
